Provenance of the data: patent EP0942911B1

TESTED SYSTEM: α-1d adrenoreceptor (Rattus norvegicus, UniProt P23944)
Sequence (P23944 whole entry): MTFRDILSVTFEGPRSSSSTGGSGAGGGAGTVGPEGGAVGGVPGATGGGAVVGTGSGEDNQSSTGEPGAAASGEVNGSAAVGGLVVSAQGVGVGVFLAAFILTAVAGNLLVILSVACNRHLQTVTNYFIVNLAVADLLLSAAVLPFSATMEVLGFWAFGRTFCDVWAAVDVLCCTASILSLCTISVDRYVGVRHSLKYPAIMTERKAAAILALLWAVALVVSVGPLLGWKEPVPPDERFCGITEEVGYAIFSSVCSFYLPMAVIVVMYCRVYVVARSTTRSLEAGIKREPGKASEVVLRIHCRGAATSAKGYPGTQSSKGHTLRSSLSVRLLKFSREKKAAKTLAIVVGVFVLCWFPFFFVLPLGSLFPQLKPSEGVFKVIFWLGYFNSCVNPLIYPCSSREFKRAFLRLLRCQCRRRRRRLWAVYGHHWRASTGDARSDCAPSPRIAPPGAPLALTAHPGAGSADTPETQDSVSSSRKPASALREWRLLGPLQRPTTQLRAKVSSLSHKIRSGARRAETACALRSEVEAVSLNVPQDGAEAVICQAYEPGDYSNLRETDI
EXPERIMENT DESCRIPTION: biochemical
Format: binding
EXPERIMENTAL SETUP: [3H]-prazosin radioligand; cloned receptor in LTK cell membranes; read-out: Radioligand Binding (Ki, nM) 1d (Rat)
Where a name gives a salt, the structure may show the parent alone.
Hi there, I'd appreciate the recorded Ki for every entry that follows.
Give bare numbers, in nM.

COc1ccc2sc3c(=O)n(CCCCN4C[C@H]5COc6cccc(OC)c6[C@@H]5C4)c(=O)[nH]c3c2n1 [Example 26, hydrochloride] :: 0.017
COc1cccc2c1[C@@H]1CN(CCCCn3c(=O)[nH]c4c(sc5ccnc(Cl)c54)c3=O)C[C@@H]1CO2 [Example 48, hydrochloride] :: 0.467
COc1cccc2c1[C@@H]1CN(CCCCn3c(=O)[nH]c4c(sc5ccc(Cl)nc54)c3=O)C[C@H]1CO2 [Example 25, dihydrochloride] :: 0.039

For each of the items listed, what is its Ki?
1. COc1cccc2c1[C@@H]1CCN(CCCCn3c(=O)[nH]c4c(sc5ncccc54)c3=O)C[C@H]1CO2 (racemic) [Example 85, dihydrochloride]
2. COc1cc2nc(N3CCN(C(=O)C4CCCO4)CC3)nc(N)c2cc1OC (stereo not drawn) [Terazosin, terazosin, reference compound]
3. COc1ccc2c(n1)sc1c(=O)n(CCCCN3C[C@H]4COc5cccc(OC)c5[C@@H]4C3)c(=O)[nH]c12 [Example 46, hydrochloride]

1: 0.566; 2: 0.689; 3: 0.114

----------
TESTED SYSTEM: α-1A adrenoreceptor (rat submaxillary gland) (Rattus norvegicus)
EXPERIMENT DESCRIPTION: biochemical
Format: binding
EXPERIMENTAL SETUP: read-out: Radioligand Binding (Ki, nM) 1A (Rat)
Structures can show the parent of a compound that is named as a salt.
Hi there, I'd appreciate the recorded Ki for every entry that follows.

COc1cccc2c1[C@H]1CN(CCCCn3c(=O)[nH]c4c(sc5nccnc54)c3=O)C[C@@H]1CO2.Cl.Cl (racemic) [Example 74, dihydrochloride] :: 3.29 nM
COc1ccc2c(c1)OC[C@H]1CN(CCn3c(=O)[nH]c4c(sc5ccccc54)c3=O)C[C@@H]21.Cl (racemic) [Example 63, hydrochloride] :: 51.2 nM
O=c1[nH]c2c(sc3cccnc32)c(=O)n1CCCCN1C[C@@H]2COc3ccccc3[C@@H]2C1 (racemic) [Example 70, dihydrochloride] :: 0.17 nM
Cl.O=c1[nH]c2c(sc3ccccc32)c(=O)n1CCN1C[C@@H]2COc3ccccc3[C@@H]2C1 (racemic) [Example 69, hydrochloride] :: 0.665 nM
COc1ccc2c(c1)[C@@H]1CN(CCCCn3c(=O)[nH]c4c(sc5nccnc54)c3=O)C[C@@H]1CO2 (racemic) [Example 76, hydrochloride] :: 11.7 nM

Moving on to the next compound.
Find Ki for COc1cccc2c1[C@@H]1CN(CCn3c(=O)[nH]c4c(sc5ccccc54)c3=O)C[C@@H]1CO2.Cl (racemic) [Example 65, hydrochloride] on α-1A adrenoreceptor (rat submaxillary gland) (Rattus norvegicus) and write it down.
15 nM

----------
TESTED SYSTEM: α-1A adrenoreceptor (rat submaxillary gland) (Rattus norvegicus, UniProt P43140)
Sequence (P43140 whole entry): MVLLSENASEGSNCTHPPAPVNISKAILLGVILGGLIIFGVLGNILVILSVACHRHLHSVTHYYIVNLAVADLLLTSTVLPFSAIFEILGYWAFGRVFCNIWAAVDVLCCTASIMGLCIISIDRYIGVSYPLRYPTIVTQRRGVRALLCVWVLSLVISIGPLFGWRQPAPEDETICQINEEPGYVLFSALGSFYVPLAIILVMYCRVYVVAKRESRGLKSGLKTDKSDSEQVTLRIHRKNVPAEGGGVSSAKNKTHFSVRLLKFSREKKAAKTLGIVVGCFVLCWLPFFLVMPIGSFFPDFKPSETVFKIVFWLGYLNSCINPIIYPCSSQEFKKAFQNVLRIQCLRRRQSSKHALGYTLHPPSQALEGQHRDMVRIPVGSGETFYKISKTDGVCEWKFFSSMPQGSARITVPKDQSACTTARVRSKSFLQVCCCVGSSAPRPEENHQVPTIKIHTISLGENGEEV
EXPERIMENT DESCRIPTION: biochemical
Format: binding
EXPERIMENTAL SETUP: [3H]-prazosin radioligand; rat submaxillary gland membranes; read-out: Radioligand Binding (Ki, nM) 1A (Rat)
Counter-ions that a name gives are not always drawn.
REPORTED ENDPOINT: log10 Ki (log10 of the value in nM)
Heads up, the numbers here are log10 of Ki in nM units.

Please review the entries below; each comes with its answer.
COc1cccc2c1[C@@H]1CN(CCCCn3c(=O)[nH]c4c(sc5ccccc54)c3=O)C[C@H]1CO2 [Example 21, hydrochloride] :: -1.52
COc1cccc2c1[C@@H]1CN(CCCCn3c(=O)[nH]c4c(sc5ccc(-c6ccccc6)nc54)c3=O)C[C@H]1CO2 [Example 52, dihydrochloride] :: 0.60
COc1ccc2c(n1)sc1c(=O)n(CCCCN3CC[C@H]4c5c(OC)cccc5OC[C@@H]4C3)c(=O)[nH]c12 [Example 103, hydrochloride] :: -0.04
COc1cccc2c1[C@@H]1CN(CCCCn3c(=O)[nH]c4c(sc5c(Cl)ccnc54)c3=O)C[C@@H]1CO2 [Example 20, hydrochloride] :: -0.68
COc1cccc2c1[C@@H]1CN(CCCCn3c(=O)[nH]c4c(sc5ncc(-c6cccnc6)nc54)c3=O)C[C@@H]1CO2 [Example 61, dihydrochloride] :: -0.82

Moving on to the next compound.
Return reported log10 Ki. Input compound: COc1cccc2c1[C@@H]1CCN(CCCCn3c(=O)[nH]c4c(sc5cccnc54)c3=O)C[C@H]1CO2 [Example 95, dihydrochloride]
0.95
